Taken from ChEMBL document CHEMBL2062435.

Test system: Escherichia coli
TEST_METHOD_NOTES: Antimicrobial activity against Escherichia coli 10-3 after 18-24 hrs by two-fold serial dilution method
Type: functional
PROPERTY_MEASURED: MIC
Quick note: number first, unit second.

Observe how each entry below is paired with its result.
                                   compound  value_reported
0  COc1cc(CO/N=C2\CN(c3nc4c(cc3F)c(=O)c(C(=O)O)cn4C3CC3)CC2CN)ccc1OC(F)F.CS(=O)(=O)O (racemic)        16 µg/mL
1  CO/N=C1\CN(c2nc3c(cc2F)c(=O)c(C(=O)O)cn3C2CC2)CC1CN (centres undefined) [GEMIFLOXACIN]       0.5 µg/mL
2  COc1cccc(CO/N=C2\CN(c3nc4c(cc3F)c(=O)c(C(=O)O)cn4C3CC3)CC2CN)c1OC.CS(=O)(=O)O (racemic)        16 µg/mL

Query: Could you share which MIC value was measured for CS(=O)(=O)O.NCC1CN(c2nc3c(cc2F)c(=O)c(C(=O)O)cn3C2CC2)C/C1=N\OCc1ccc2c(c1)OCO2 (racemic) ?
Reply: 8 µg/mL

* * *

Tested on: Escherichia coli
TEST_METHOD_NOTES: Antimicrobial activity against extended spectrum beta-lactamases-producing Escherichia coli 10-2 after 18-24 hrs by two-fold serial dilution method
Format: functional
PROPERTY_MEASURED: MIC

                                   molecule  property_measured  value_reported
0  COc1ccc(CO/N=C2\CN(c3nc4c(cc3F)c(=O)c(C(=O)O)cn4C3CC3)CC2CN)c(OC)c1.CS(=O)(=O)O (racemic)                MIC     > 128 µg/mL
1  COc1cc(F)c(CO/N=C2\CN(c3nc4c(cc3F)c(=O)c(C(=O)O)cn4C3CC3)CC2CN)cc1OC.CS(=O)(=O)O (racemic)                MIC     > 128 µg/mL
2  COc1cccc(CO/N=C2\CN(c3nc4c(cc3F)c(=O)c(C(=O)O)cn4C3CC3)CC2CN)c1OC.CS(=O)(=O)O (racemic)                MIC     > 128 µg/mL
3  COc1ccc(CO/N=C2\CN(c3nc4c(cc3F)c(=O)c(C(=O)O)cn4C3CC3)CC2CN)c(Cl)c1OC.CS(=O)(=O)O (racemic)                MIC     > 128 µg/mL
4  COc1cc(Br)c(CO/N=C2\CN(c3nc4c(cc3F)c(=O)c(C(=O)O)cn4C3CC3)CC2CN)cc1OC.CS(=O)(=O)O (racemic)                MIC     > 128 µg/mL

Query: I have this molecule here, C[C@H]1COc2c(N3CCN(C)CC3)c(F)cc3c(=O)c(C(=O)O)cn1c23.C[C@H]1COc2c(N3CCN(C)CC3)c(F)cc3c(=O)c(C(=O)O)cn1c23.O , and I need its recorded MIC.
Reply: 16 µg/mL

Query: Reported MIC for COc1cc(CO/N=C2\CN(c3nc4c(cc3F)c(=O)c(C(=O)O)cn4C3CC3)CC2CN)c([N+](=O)[O-])cc1OC.CS(=O)(=O)O (racemic) : what is it?
Reply: > 128 µg/mL

Query: # input molecule: CS(=O)(=O)O.NCC1CN(c2nc3c(cc2F)c(=O)c(C(=O)O)cn3C2CC2)C/C1=N\OCc1ccc2c(c1)OCCO2 (racemic) ; wanted: its MIC
Reply: > 128 µg/mL

Query: What does the data say about its MIC? Entry: COc1ccc(CO/N=C2\CN(c3nc4c(cc3F)c(=O)c(C(=O)O)cn4C3CC3)CC2CN)cc1.CS(=O)(=O)O (racemic)
Reply: 128 µg/mL
